# experimental_system: B-Raf (Homo sapiens, UniProt P15056)
# Sequence (P15056 whole entry): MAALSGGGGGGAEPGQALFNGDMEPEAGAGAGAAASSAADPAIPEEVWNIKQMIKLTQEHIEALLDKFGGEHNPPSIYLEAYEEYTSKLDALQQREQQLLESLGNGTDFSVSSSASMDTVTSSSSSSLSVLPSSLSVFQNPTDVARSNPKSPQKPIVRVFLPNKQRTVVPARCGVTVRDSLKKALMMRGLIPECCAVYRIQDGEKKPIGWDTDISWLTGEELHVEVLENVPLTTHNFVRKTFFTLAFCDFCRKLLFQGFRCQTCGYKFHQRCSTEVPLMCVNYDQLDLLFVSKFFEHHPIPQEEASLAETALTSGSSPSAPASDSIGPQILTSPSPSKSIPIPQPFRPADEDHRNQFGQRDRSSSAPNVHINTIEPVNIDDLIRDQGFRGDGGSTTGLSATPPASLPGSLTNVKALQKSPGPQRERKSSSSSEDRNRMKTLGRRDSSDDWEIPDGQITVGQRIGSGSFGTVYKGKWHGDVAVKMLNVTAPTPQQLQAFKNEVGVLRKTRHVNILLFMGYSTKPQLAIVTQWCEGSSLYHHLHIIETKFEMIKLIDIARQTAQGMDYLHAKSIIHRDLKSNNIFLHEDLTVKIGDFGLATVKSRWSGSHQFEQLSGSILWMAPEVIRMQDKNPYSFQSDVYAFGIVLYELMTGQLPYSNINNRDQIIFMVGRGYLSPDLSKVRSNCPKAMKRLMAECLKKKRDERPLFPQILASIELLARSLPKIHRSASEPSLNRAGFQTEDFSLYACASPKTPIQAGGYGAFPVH
# measurement_notes: Luciferase-coupled chemiluminescence kinase assay (ATP consumption), B-Raf
# Format: biochemical
# condition_parameters: read-out: bRaf IC50

molecule	experimental_system	IC50
O=C1COc2ccc(C3(O)c4ccccc4C(=O)N3c3cccc(I)c3)cc2N1 (centres unmarked)	B-Raf (Homo sapiens, UniProt P15056)	100 to 1000 nM
COC(=O)Nc1nc2cc(C3(O)c4ccccc4C(=O)N3c3cc(C)cc(C(F)(F)F)c3)ccc2[nH]1 (centres unmarked)	B-Raf (Homo sapiens, UniProt P15056)	< 100 nM
COc1cccc(N2C(=O)c3ccccc3C2(O)c2ccc3c(c2)NC(=O)CO3)c1 (centres unmarked)	B-Raf (Homo sapiens, UniProt P15056)	100 to 1000 nM
COC(=O)Nc1nc2cc(C3(O)c4ccccc4C(=O)N3c3cc(F)cc(Cl)c3)ccc2[nH]1 (centres unmarked)	B-Raf (Homo sapiens, UniProt P15056)	< 100 nM
CC(C)c1cccc(N2C(=O)c3ccccc3C2(O)c2ccc3c(c2)NC(=O)CO3)c1 (centres unmarked)	B-Raf (Homo sapiens, UniProt P15056)	100 to 1000 nM
COC(=O)Nc1nc2cc(C3(O)c4ccccc4C(=O)N3c3cc(Cl)cc(Cl)c3)ccc2[nH]1 (centres unmarked)	B-Raf (Homo sapiens, UniProt P15056)	< 100 nM
O=C1COc2ccc(C3(O)c4ccccc4C(=O)N3Cc3ccccc3C(F)(F)F)cc2N1 (centres unmarked)	B-Raf (Homo sapiens, UniProt P15056)	≥ 10000 nM
O=C1COc2ccc(C3(O)c4ccccc4C(=O)N3c3cccc(OCc4ccccc4)c3)cc2N1 (centres unmarked)	B-Raf (Homo sapiens, UniProt P15056)	≥ 10000 nM
